# pIC50 per entry
Target: Receptor-type tyrosine-protein phosphatase C (Homo sapiens)
Sequence (P08575 whole entry): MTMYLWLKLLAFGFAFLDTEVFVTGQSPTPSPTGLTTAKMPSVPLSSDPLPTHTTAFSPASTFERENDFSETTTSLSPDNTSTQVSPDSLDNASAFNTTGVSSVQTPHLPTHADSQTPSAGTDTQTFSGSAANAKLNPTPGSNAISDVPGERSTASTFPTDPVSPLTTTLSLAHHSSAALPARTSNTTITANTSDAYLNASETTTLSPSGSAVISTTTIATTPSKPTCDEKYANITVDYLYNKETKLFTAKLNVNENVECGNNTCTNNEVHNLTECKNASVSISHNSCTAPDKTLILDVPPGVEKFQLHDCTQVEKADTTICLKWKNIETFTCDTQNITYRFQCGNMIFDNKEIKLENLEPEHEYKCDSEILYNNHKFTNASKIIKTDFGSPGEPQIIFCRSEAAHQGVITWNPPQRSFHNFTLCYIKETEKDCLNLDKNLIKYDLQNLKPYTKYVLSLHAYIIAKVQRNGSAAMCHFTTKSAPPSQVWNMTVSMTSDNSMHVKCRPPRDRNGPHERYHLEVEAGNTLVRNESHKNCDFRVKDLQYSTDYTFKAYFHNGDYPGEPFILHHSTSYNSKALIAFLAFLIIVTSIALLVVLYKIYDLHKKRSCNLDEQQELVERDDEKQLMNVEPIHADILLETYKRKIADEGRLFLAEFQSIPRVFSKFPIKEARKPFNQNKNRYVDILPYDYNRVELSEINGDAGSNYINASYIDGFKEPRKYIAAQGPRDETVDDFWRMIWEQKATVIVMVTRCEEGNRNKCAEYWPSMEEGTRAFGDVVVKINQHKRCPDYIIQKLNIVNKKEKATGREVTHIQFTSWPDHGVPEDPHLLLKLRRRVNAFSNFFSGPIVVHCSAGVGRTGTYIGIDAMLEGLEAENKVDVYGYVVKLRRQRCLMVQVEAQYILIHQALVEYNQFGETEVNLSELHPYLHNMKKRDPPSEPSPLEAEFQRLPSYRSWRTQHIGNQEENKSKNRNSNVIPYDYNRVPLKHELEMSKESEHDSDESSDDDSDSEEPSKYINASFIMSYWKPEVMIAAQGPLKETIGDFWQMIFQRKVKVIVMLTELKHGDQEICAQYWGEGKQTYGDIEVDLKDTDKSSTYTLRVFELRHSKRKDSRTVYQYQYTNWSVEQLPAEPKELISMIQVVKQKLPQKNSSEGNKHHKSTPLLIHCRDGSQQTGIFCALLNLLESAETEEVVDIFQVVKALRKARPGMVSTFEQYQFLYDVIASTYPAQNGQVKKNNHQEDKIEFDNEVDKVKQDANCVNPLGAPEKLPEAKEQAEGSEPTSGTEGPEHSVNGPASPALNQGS
Assay: Inhibition of human recombinant CD45 using pNPP as substrate preincubated for 10 mins followed by substrate addition measured after 30 mins
pIC50: −log10 of the molar value.

Entry C/C(=C\C[n+]1cn(C)c2ncnc(N)c21)CC[C@]1(C)[C@@H](C)CC[C@@]2(C)C(COC(=O)c3cc(Br)c[nH]3)=CCC[C@@H]12 ; pIC50 = < 4.80

Entry C/C(=C\Cn1c[n+](C)c2ncnc(N)c21)CC[C@]1(C)[C@@H](C)CC[C@@]2(C)C(COC(=O)c3ccc[nH]3)=CCC[C@@H]12 ; pIC50 = < 4.72

meta.source: ChEMBL document CHEMBL4038296
